So I've got a bunch of compounds here, and I need their log10 solubility kinetic values.
# applied conditions: buffer; pH 7.4; 200.0 µM
// do not treat as linear: log10 of solubility kinetic, unit µg/mL

Some solved entries appear below for comparison.
compound: COc1ccccc1CN(C)C(=O)CNC(=O)c1cccc(Cl)c1
log10 solubility kinetic: 1.71

compound: CCOc1ncccc1C(=O)OCc1cccc([N+](=O)[O-])c1
log10 solubility kinetic: -0.30

compound: N#CCC(=O)Nc1ncc(Cc2ccccc2Cl)s1
log10 solubility kinetic: 0.00

compound: Clc1ccc(N=C2SCCS2)cc1
log10 solubility kinetic: 1.04

compound: Nc1nc(COc2ccccc2C=O)nc(Nc2ccccc2)n1
log10 solubility kinetic: 1.51

compound: O=C(NCC1COc2ccccc2O1)C1CCN(S(=O)(=O)c2ccccc2)CC1 (centres undefined)
log10 solubility kinetic: 1.61

compound: Cc1ccc(OCC(=O)NC2CCSc3ccccc32)cc1 (centres undefined)
log10 solubility kinetic: 1.07

compound: COc1ccc(OC(=O)c2cnc3n(c2=O)CCS3)cc1
log10 solubility kinetic: 1.54

compound: Cc1ccc(S(=O)(=O)NC23CC4CC(CC(C4)C2)C3)cc1
log10 solubility kinetic: 0.38

compound: COCCCNC(=O)c1cc2c(=O)n3cccc(C)c3nc2s1
log10 solubility kinetic: 0.80

Hey, can you go through the list below and give me log10 solubility kinetic for every item?
1. O=C(Cc1cccs1)Nc1ccc([N+](=O)[O-])cc1
2. Cc1ccc(C(=O)Nc2nc(-c3ccc(F)cc3)cs2)o1
3. COC(=O)c1cc(CNC(=O)C2CC(=O)N(c3ccc4c(c3)OCCO4)C2)ccc1OC (centres undefined)

Solution:
[1.59, 0.64, 1.81]

Reference source: PubChem BioAssay AID1996
